- System: Wolbachia pipientis
- protocolDescription: Anti-Wolbachia Cell-Based Screen
- Format: functional
- Set-up: scale not given: in the data most compounds retested in dose-response had high values
- conditionNotes: 5 µM
Screen size: about 48,000 compounds; about 13,000 (27%) showed an effect of 50% or more. Some of the results follow.
parameter: Percent Effect (%)
One number for each entry, in %.

Below: 3 compounds and their reported Percent Effect.
compound: O=C(c1ccoc1)N1CCC2(CC1)COC(COCc1ccccn1)C2 (centres undefined)
measValue: 4.399

compound: CNC(=O)C1CCN(C(=O)CCn2cccn2)CC1
measValue: -8.925

compound: O=C(C1CCN(c2ncnc3cccc(F)c23)CC1)N1CCCC1
measValue: -3.07

Working through the 7 compounds below one at a time, give Percent Effect for each.
1. Cc1cnn(C2CN(c3nc(-c4ccncc4)nc4c3CCC4)C2)c1
2. NCC1CN(c2nc(-c3cccnc3)nc3c2CCNCC3)CCO1 (centres undefined)
3. CN(C)[C@@H]1CCN(c2ncccn2)[C@H]1Cc1ccncc1.O=C(O)C(F)(F)F.O=C(O)C(F)(F)F
4. CC(C)Cn1cc(NC(=O)NC(C)(C)c2nccs2)cn1
5. CC(C)Oc1cc(N2C[C@@H](C)O[C@@H](C)C2)nc(N)n1
6. O=S(=O)(Nc1ccc(Oc2ccc3c(c2)OCO3)cc1)N1CCCCC1
7. Cn1nc(C#N)c2c1CN(C(=O)c1ccnnc1)CCC2

1: -2.167; 2: -59.49; 3: -8.933; 4: -7.007; 5: -18.9; 6: 108.9; 7: -0.2276

Batch: Percent Effect for all items listed.
1. Cc1c(F)cc(C(=O)O)cc1S(=O)(=O)Nc1ccc2c(c1)OCCO2
2. Cc1cc(C)c2c(N3CCC(C(=O)N4CCOCC4)CC3)ncnc2n1

1. -12.89
2. 125.4

Report Percent Effect for each item below.
1. OCCOc1ccc(NCc2cccc3cn[nH]c23)cn1
2. NC(=O)C1CCN(C(=O)Cn2nc(-c3ccccc3)oc2=O)C1 (centres undefined)

11.64
-8.478

----------
For each entry below, report its Percent Effect value.
- Test system: Wolbachia pipientis
- protocolDescription: Anti-Wolbachia Cell-Based Screen
- Type: functional
- Design: scale not given: in the data most compounds retested in dose-response had high values
- conditionNotes: 5 µM
Screen size: about 48,000 compounds; about 13,000 (27%) showed an effect of 50% or more. The list shows a part of the results.
# answer = value followed by unit

compound: O=C(O)C(c1ccc2c(c1)OCCO2)N1CCC(N2CCSCC2)CC1 (centres undefined)
measValue: 114.8%
//
compound: Fc1ccc(-c2nnc(CN3CCCC(Cn4cncn4)C3)o2)cc1 (centres undefined)
measValue: 112.2%
//
compound: CS(=O)(=O)CC(=O)N1C[C@H]2CCC[C@@]2(COc2ccccn2)C1.O=C(O)C(F)(F)F
measValue: 109.7%

Please find the next compound below.
# input compound: CN(CCO)C[C@@H]1CN(C(=O)Cc2ccc3ccccc3c2)C[C@@H]1CO ; wanted: its Percent Effect -10.71%

----------
- Tested on: Wolbachia pipientis
- protocolDescription: Anti-Wolbachia Cell-Based Screen
- Type: functional
- Design: scale not given: in the data most compounds retested in dose-response had high values
- conditionNotes: 5 µM
Among all 48,000 compounds or so, about 13,000 (27%) showed an effect of 50% or more. Some of the results follow.
Provide the recorded Percent Effect for the entries that follow.
Enter the number, and then the unit.

Check out these entries, answers already filled in.
compound: CC(=O)c1ccc(C(=O)N2C[C@@H]3CC[C@H](C2)N(CC2CCC2)C3)s1
measValue: -8.325%
--
compound: COc1ncccc1CN1CCc2[nH]cnc2C1CCSC (configuration not stated)
measValue: -5.01%
--
compound: CC(=O)Nc1ccc(CN2CCc3[nH]cnc3C2c2nccn2C)cc1 (configuration not stated)
measValue: 16.2%
--
compound: Nc1nc2c(c(NCc3ccc(C(=O)N4CCCC4)cc3)n1)CCCC2
measValue: -8.867%
--
compound: CCCn1ccnc1CN1CCc2[nH]cnc2C1Cc1ccccc1 (configuration not stated)
measValue: -1.947%
--
compound: CC(=O)N1CCc2[nH]nc(C(=O)N3CCOCC3)c2C1
measValue: -13.35%

Looking for the measured Percent Effect of Cc1nc2oc(C(=O)N3CCCC3)c(N)c2c2c1CCCC2 , can you help? 89.55%

Sourced from ChEMBL document CHEMBL3988442
